System under test: EGFR wildtype (WT) (Homo sapiens, UniProt P00533)
Sequence (P00533 25-1210): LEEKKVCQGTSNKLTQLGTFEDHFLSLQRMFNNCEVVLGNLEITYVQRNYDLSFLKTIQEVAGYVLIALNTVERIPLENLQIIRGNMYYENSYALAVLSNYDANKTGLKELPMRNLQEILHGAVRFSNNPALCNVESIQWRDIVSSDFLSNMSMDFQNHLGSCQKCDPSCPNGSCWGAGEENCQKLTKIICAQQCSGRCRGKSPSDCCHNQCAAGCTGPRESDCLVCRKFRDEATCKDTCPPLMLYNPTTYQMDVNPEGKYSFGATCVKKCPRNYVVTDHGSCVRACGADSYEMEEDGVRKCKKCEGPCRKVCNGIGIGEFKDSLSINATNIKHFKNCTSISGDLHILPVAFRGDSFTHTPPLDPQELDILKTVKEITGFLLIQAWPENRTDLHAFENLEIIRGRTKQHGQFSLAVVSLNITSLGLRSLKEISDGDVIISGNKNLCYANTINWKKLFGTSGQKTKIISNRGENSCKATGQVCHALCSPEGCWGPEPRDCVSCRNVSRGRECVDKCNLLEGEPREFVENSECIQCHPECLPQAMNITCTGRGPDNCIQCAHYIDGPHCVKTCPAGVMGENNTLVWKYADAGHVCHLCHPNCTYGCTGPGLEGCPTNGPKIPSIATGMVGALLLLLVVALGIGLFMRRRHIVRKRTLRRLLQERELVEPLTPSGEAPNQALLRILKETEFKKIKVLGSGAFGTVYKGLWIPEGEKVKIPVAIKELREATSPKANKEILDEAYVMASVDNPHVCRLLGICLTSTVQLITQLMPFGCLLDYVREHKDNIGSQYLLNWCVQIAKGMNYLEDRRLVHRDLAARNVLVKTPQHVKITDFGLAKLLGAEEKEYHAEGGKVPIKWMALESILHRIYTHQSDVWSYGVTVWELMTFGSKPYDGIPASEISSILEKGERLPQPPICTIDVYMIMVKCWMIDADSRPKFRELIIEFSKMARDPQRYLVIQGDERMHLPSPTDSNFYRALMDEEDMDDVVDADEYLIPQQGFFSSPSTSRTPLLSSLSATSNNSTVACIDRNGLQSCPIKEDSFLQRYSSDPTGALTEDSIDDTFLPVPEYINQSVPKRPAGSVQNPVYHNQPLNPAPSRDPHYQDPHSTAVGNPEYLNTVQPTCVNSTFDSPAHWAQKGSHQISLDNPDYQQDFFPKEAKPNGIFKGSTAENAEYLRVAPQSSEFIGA
Measurement notes: Biochemical EGFR kinase assay (Lance Ultra TR-FRET), wildtype
Assay setup: Km ATP; read-out: IC50 WT (nM) Km ATP
Checkbox rule: IC50 lower than 6 nM = true; IC50 not lower than 6 nM = false.

Here's what some known entries look like.
[[record]]
compound = "C[C@]1(O)CC[C@@H](Nc2cc(Nc3ccnc(-c4cnn(S(=O)(=O)C5CC5)c4)n3)ncc2-c2ccn(C(F)(F)F)n2)CC1 [Example 285]"
assigned_class = "true"

[[record]]
compound = "O=S(=O)(C1CC1)n1cc(-c2nccc(Nc3cc(N[C@H]4CC[C@@H](NCC(F)F)CC4)c(-c4cc5n(n4)CCCC5)cn3)n2)cn1 [Example 63]"
assigned_class = "true"

[[record]]
compound = "O=S(=O)(C1CC1)n1cc(-c2nccc(Nc3cc(NC4CCC(F)CC4)c(-c4ccn(C(F)F)n4)cn3)n2)cn1 (stereo not drawn) [Example 214]"
assigned_class = "false"


Request: Dear reviewer, please state whether CN(C)C[C@H]1C[C@H](CNc2cc(Nc3ccnc(-c4cnn(S(=O)(=O)C5CC5)c4)n3)ncc2-c2ccn(C)n2)C1 [Example 239] has IC50 strictly beneath 6 nM.
Response: false

Request: Lab note: IC50 threshold 6 nM. Does this compound come in strictly under it? O=S(=O)(C1CC1)n1cc(-c2nccc(Nc3cc(NCC4(CO)COC4)c(-c4ccn(C(F)F)n4)cn3)n2)cn1 [Example 197]
Response: false
